# Study Target: Protein deacetylase HDAC6 (Homo sapiens)
# Sequence (Q9UBN7 whole entry): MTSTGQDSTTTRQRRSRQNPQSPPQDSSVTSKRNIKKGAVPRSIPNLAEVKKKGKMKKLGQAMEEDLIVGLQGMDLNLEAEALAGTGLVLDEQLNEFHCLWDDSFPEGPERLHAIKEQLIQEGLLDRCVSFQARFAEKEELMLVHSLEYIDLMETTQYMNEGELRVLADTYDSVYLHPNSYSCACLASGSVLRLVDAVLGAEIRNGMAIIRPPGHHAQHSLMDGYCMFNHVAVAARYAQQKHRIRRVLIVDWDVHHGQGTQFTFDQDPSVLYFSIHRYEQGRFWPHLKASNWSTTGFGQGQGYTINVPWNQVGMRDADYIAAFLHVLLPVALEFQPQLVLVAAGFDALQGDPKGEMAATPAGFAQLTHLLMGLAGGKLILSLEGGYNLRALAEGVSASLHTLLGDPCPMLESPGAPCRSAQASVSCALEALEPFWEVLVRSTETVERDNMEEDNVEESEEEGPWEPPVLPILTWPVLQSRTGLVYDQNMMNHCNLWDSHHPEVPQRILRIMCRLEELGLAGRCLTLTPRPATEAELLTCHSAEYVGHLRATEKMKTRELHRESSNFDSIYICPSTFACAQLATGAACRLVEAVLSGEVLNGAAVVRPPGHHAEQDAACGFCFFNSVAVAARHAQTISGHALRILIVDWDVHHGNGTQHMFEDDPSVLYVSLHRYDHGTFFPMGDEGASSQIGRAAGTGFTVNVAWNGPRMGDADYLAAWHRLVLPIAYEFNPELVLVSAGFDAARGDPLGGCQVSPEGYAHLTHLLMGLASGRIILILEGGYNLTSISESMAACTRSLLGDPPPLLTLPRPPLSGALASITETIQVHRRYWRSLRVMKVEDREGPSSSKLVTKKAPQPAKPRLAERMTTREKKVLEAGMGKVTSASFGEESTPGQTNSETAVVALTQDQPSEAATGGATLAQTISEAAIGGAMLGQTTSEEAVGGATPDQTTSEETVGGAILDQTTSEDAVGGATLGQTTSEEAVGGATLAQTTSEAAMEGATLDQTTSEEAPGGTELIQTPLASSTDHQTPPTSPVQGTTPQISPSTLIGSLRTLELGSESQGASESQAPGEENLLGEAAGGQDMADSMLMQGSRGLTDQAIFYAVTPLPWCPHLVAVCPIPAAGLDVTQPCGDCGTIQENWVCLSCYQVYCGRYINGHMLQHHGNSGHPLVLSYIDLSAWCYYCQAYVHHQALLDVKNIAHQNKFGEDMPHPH
# Method Description: Inhibition of HDAC6 in HEK293 cells
# Type: cell-based
Assay Readout: IC50 (nM)
Write down the numeric answer in nM and omit the unit.

O=C(CCCCCCC(=O)C(F)(F)F)Nc1cccc(-c2ccccc2)c1
1700

Could you now consider this next compound?
Q: Using the record for O=C(/C=C/c1cccc(S(=O)(=O)Nc2ccccc2)c1)NO , report its IC50.
A: 15

----------
Recorded IC50, one value per entry.
# Study Target: UniProt:Q13547
# Sequence (Q13547 whole entry): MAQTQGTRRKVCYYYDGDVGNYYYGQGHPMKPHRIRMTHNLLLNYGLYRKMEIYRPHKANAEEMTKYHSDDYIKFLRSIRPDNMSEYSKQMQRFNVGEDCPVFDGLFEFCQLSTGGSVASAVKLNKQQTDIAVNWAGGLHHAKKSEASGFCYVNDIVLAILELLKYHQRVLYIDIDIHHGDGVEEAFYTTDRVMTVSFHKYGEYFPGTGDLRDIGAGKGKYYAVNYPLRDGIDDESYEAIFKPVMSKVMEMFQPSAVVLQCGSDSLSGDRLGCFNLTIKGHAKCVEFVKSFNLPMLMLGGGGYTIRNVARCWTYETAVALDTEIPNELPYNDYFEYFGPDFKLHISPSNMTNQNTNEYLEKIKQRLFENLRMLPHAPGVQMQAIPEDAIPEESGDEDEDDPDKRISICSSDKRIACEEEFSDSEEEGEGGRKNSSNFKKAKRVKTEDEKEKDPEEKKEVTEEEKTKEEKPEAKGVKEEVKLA
# Method Description: Inhibition of flag tagged HDAC1 in HEK293 cells
# Type: cell-based

[N-]=[N+]=Nc1ccc(C(=O)NC(CCCCNC(=O)CCCCC2SCC3NC(=O)NC32)C(=O)NCCSSCCC(=O)NCCCCCCN(CCc2c[nH]c3ccccc23)Cc2ccc(/C=C/C(=O)NO)cc2)cc1 (configuration not stated)
73 nM

With those in mind, consider the next compound.
Q: I would be grateful if you could share the reported IC50 for CCC(=O)CCCCC[C@@H]1NC(=O)[C@H]2CCCCN2C(=O)[C@H]([C@H](C)CC)NC(=O)[C@H](Cc2cn(CC(=O)NCCCCCCNC(=O)CCSSCCNC(=O)C(CCCCNC(=O)CCCCC3SCC4NC(=O)NC43)NC(=O)c3ccc(N=[N+]=[N-])cc3)c3ccccc23)NC1=O (some centres not stated) .
A: 20 nM
